Exercise: state measured pKd for each of the compounds provided.
# assay system: K12 tau (first-generation AD-brain-seeded K12 fibrils) (Homo sapiens, UniProt P10636, C639A)
# Construct: 3R fragment; E. coli; amyloid fibrils seeded with Alzheimer's disease brain homogenate, heparin-free
# Sequence (P10636 561-717 C639A): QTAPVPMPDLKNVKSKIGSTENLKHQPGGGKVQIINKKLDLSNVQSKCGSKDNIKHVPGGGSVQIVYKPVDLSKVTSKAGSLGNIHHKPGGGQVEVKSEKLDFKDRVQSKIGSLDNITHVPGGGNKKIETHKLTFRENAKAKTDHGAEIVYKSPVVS
# test description: fluorescence polarization with K12 fibrils
# protocol conditions: 10 μM compound; AD-seeded K12 fibrils (monomer equivalents); 250 mM Na3citrate, 10 mM HEPES pH 7.4; 1% DMSO; room temperature; one-step binding fit
Quick note: pKd values are minus log10 of concentrations in mol/L.

In: Need pKd, item Cc1noc(C2CCN(C(=O)CCCc3ccccc3)CC2)n1 [I1.51]
Out: 6.13

In: Need pKd, item Cc1noc(C2CCN(C(=O)CNC(=O)c3ccccc3)C2)n1 (centres unmarked) [I1.21]
Out: 5.80
